Data provenance is patent US10670605B2.

# targetOrTestSystem: IRF4 C194 (Q15306) (Homo sapiens, UniProt Q15306)
# Sequence (Q15306 whole entry): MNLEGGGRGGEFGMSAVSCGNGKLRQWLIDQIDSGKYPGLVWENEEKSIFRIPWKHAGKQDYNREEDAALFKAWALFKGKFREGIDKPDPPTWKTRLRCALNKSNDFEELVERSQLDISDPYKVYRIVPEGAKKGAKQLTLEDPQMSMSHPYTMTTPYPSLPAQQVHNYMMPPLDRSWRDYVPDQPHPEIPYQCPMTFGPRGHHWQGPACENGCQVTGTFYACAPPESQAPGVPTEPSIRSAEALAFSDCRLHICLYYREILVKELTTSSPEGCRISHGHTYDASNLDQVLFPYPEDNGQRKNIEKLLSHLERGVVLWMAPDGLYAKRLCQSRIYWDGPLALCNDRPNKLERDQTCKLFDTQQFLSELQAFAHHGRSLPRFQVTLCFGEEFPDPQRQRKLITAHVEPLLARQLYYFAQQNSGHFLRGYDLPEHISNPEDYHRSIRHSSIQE
# experimentSummary: Competitive isoTOP-ABPP, cell lysates
# Assay type: binding
# experimentalContext: 500 μm, in-vitro_ramos
Lab note: cut-off is 1. Strictly less in isoTOP-ABPP reactivity ratio, Q15306_C194 is label 1. Exactly 1 or more is label 0.

Example entries begin here.
Cc1ccc(C=C(C#N)C(=O)NCCN2CCOCC2)cc1 [compound 41]    label 0
CC(C)(C)c1cc(NC(=O)CCl)on1 [compound 32]    label 0
C=CC(=O)N1CCC(c2noc3ccc(F)cc23)CC1 [compound 37]    label 1

Now consider the entry below.
Task: Hello, is isoTOP-ABPP reactivity ratio, Q15306_C194 of the following molecule strictly smaller than 1? CCN(CC)c1ccc(S(N)(=O)=O)cc1NC(=O)CCl [compound 30]
Result: label 0

====

Reported isoTOP-ABPP ratio (reactivity profile), P40763_C259 by item:
# targetOrTestSystem: STAT3 C259 (P40763) (Homo sapiens, UniProt P40763)
# Sequence (P40763 whole entry): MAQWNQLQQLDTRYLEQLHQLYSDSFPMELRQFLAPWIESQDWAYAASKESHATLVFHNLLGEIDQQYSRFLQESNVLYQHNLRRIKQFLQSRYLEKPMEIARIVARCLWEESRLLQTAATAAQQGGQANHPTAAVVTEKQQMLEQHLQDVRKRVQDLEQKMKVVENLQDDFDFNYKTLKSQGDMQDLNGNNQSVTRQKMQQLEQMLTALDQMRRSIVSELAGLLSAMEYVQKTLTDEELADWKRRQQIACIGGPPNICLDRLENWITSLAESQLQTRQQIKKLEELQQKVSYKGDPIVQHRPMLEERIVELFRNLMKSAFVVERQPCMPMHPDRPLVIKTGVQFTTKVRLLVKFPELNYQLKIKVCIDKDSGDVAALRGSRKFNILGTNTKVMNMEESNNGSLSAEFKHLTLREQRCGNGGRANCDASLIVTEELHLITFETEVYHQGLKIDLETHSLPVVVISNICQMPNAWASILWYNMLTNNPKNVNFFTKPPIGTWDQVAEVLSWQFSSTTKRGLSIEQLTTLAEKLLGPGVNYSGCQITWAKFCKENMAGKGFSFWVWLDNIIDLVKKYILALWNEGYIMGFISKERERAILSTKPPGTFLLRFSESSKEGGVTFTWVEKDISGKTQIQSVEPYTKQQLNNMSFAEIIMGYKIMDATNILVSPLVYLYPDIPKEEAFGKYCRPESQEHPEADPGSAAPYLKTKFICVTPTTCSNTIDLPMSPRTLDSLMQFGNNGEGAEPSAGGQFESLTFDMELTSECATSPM
# experimentSummary: Competitive isoTOP-ABPP, cell lysates
# Type: binding
# experimentalContext: 500 μm in-vitro ramos_231
// print number alone

N#C/C(=C\c1cc(C(F)(F)F)cc(C(F)(F)F)c1)C(N)=O    1.1
CC(C)CCOCCNC(=O)CCl    0.7
O=C(CCl)N1CCOCC1    2.0
CC(Cl)C(=O)Nc1cc(C(F)(F)F)cc(C(F)(F)F)c1 (stereo not drawn)    0.9
O=C(CCl)N1CCN(CC(=O)N2CCOCC2)CC1    1.5

With those in mind, consider the next compound.
Task: Reported isoTOP-ABPP ratio (reactivity profile), P40763_C259, compound "COc1ccccc1OCCNC(=O)CCl" : ____
Result: 1.0

====

# targetOrTestSystem: cysteines in MDA-MB-231 and Ramos cells (Homo sapiens, UniProt Q13162)
# Sequence (Q13162 38-271): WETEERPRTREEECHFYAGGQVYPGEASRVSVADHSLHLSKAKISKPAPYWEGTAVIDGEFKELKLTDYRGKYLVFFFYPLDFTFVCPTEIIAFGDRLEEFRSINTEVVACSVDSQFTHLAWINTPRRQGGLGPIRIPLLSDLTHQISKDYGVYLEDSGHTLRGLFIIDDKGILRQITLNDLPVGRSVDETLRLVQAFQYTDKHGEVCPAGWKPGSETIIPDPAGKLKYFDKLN
# experimentSummary: Competitive isoTOP-ABPP in situ (fragment-treated cells)
# Type: cell-based
# experimentalContext: 200 μM, insitu, 231
Reported isoTOP-ABPP ratio Q13162_C51 by item:
// print number alone

// worked examples, isoTOP-ABPP ratio Q13162_C51 included
CC1CCc2ccccc2N1C(=O)CCl (stereo not drawn)    2.3
O=C(CCl)NC12CC3CC(CC(C3)C1)C2    1.7
O=C(CCl)N1CCN(S(=O)(=O)c2ccccc2F)CC1    2.0
O=C(CCl)NC(=O)NC12CC3CC(CC(C3)C1)C2    1.0
C=CC(=O)Nc1cc(F)c(N2CCN(C(=O)OC(C)(C)C)CC2)c(F)c1    2.4

Task: Reported isoTOP-ABPP ratio Q13162_C51, molecule "CC(C)CCOCCNC(=O)CCl" : ____
Result: 0.9

====

# targetOrTestSystem: cysteines in MDA-MB-231 and Ramos cells (Homo sapiens, UniProt Q9Y3D0)
# Sequence (Q9Y3D0 whole entry, the tested form may be a part): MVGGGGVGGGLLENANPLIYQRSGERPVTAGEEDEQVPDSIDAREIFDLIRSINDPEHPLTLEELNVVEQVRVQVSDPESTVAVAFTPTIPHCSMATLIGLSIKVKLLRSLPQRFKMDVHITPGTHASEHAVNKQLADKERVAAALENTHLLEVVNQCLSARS
# experimentSummary: Competitive isoTOP-ABPP in situ (fragment-treated cells)
# Type: cell-based
# experimentalContext: 200 μM, insitu, 231
I would appreciate it if you labelled entries satisfied when isoTOP-ABPP ratio Q9Y3D0_C93 is 0.8 or higher, otherwise not satisfied.

Example entries begin here.
O=C(CCl)NC12CC3CC(CC(C3)C1)C2    not satisfied
O=C(CCl)Nc1cccc2ncccc12    satisfied
Cc1ccc(C=C(C#N)C(=O)NCCN2CCOCC2)cc1    not satisfied
C=CC(=O)Nc1cc(F)c(N2CCN(C(=O)OC(C)(C)C)CC2)c(F)c1    satisfied
O=C(CCl)N1CCN(S(=O)(=O)c2ccccc2F)CC1    satisfied
CC1CCc2ccccc2N1C(=O)CCl (centres unmarked)    satisfied

Now consider the entry below.
Task: Reported isoTOP-ABPP ratio Q9Y3D0_C93 reaches at least 0.8 for "CC(C)CCOCCNC(=O)CCl" ?
Result: not satisfied

====

# targetOrTestSystem: UniProt Q99873
# Sequence (Q99873 whole entry, the tested form may be a part): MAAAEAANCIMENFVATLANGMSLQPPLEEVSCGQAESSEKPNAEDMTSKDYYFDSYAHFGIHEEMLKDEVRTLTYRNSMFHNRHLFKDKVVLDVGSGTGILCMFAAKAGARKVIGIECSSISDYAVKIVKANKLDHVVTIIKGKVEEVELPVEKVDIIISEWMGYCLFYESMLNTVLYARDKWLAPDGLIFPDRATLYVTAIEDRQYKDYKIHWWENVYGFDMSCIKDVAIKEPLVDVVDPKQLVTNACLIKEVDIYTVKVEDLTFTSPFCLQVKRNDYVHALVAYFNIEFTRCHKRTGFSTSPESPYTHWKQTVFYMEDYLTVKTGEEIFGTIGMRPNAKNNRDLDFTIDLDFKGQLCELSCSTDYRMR
# experimentSummary: Competitive isoTOP-ABPP, cell lysates;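 on isoTOP-ABPP reactivity profile ratio, Q99873 C109: Heavy/light ratio DMSO over fragment-treated so higher means more cysteine engagement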
# Type: binding
# experimentalContext: 500 μm, in-vitro_ramos_231
I would appreciate it if you labelled entries 1 when isoTOP-ABPP reactivity profile ratio, Q99873_C109 is 1 or higher, otherwise 0.

O=C(CCl)NC1C(O)OC(CO)C(O)C1O (mixture of isomers) [compound 44]    0
CC1CCc2ccccc2N1C(=O)CCl (centres unmarked) [compound 45]    1

Task: Reported isoTOP-ABPP reactivity profile ratio, Q99873_C109 reaches at least 1 for Cc1ncc(CO)c(CNC(=O)CCl)c1O [compound 54] ?
Result: 1

Task: Reported isoTOP-ABPP reactivity profile ratio, Q99873_C109 reaches at least 1 for O=C(CCl)Nc1cccc2ncccc12 [compound 51] ?
Result: 0

====

# targetOrTestSystem: cysteines in MDA-MB-231 and Ramos cells (Homo sapiens)
# experimentSummary: Competitive isoTOP-ABPP in situ (fragment-treated cells)
# Assay type: cell-based
# experimentalContext: 200 μM, insitu, 231
Reported isoTOP-ABPP ratio P04183_C230 by item:
// print number alone

Cc1ccc(C=C(C#N)C(=O)NCCN2CCOCC2)cc1 [compound 41]    0.6
O=C(CCl)Nc1cccc2ncccc12 [compound 51]    0.7
CC1CCc2ccccc2N1C(=O)CCl (stereo not shown) [compound 45]    2.0
O=C(CCl)NCCc1c[nH]c2ccccc12 [compound 13]    0.7

Task: Reported isoTOP-ABPP ratio P04183_C230, molecule O=C(CCl)N1CCN(S(=O)(=O)c2ccccc2F)CC1 [compound 10] : ____
Result: 1.3

Task: Reported isoTOP-ABPP ratio P04183_C230, molecule C=CC(=O)Nc1cc(F)c(N2CCN(C(=O)OC(C)(C)C)CC2)c(F)c1 [compound 38] : ____
Result: 2.8

Task: Reported isoTOP-ABPP ratio P04183_C230, molecule O=C(CCl)NC12CC3CC(CC(C3)C1)C2 [compound 21] : ____
Result: 0.7

====

# targetOrTestSystem: UniProt:P24752
# Sequence (P24752 34-427): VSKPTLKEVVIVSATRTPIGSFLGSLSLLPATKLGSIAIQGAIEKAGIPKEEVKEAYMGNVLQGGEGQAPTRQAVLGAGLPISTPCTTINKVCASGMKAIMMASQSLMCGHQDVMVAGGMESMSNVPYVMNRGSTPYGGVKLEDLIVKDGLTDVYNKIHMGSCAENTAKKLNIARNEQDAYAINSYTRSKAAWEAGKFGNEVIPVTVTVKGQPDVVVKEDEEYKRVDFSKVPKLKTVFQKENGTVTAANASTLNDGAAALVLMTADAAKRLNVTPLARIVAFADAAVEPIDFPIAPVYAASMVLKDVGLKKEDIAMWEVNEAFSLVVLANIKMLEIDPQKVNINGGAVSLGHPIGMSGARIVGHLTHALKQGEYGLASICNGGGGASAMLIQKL
# experimentSummary: Competitive isoTOP-ABPP, cell lysates
# Type: binding
# experimentalContext: 500 μM, invitro, ramos
Reported isoTOP-ABPP ratio P24752_C413 by item:
// print number alone

// worked examples, isoTOP-ABPP ratio P24752_C413 included
O=C(CCl)NC(=O)NC12CC3CC(CC(C3)C1)C2    1.1
O=C(CCl)N1CCN(S(=O)(=O)c2ccccc2F)CC1    1.6
Cn1cc(S(=O)(=O)N2CCOCC2)cc1C(=O)NC(=O)CCl    1.7

With those in mind, consider the next compound.
Task: Reported isoTOP-ABPP ratio P24752_C413, compound "O=C(CCl)NCCc1c[nH]c2ccccc12" : ____
Result: 7.3

====

# targetOrTestSystem: AIP C122 (O00170) (Homo sapiens, UniProt O00170)
# Sequence (O00170 whole entry): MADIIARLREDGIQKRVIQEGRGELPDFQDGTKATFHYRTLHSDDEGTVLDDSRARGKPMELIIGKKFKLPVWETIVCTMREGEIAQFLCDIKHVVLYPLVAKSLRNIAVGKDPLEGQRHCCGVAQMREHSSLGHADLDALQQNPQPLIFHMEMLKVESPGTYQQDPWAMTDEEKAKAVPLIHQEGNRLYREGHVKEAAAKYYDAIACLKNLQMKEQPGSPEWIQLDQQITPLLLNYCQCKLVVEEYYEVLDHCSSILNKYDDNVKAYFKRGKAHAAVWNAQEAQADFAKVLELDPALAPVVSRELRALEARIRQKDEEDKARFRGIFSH
# experimentSummary: Competitive isoTOP-ABPP, cell lysates
# Assay type: binding
# experimentalContext: 500 μm in-vitro ramos
Reported isoTOP-ABPP ratio (reactivity profile), O00170_C122 by item:
// print number alone

// worked examples, isoTOP-ABPP ratio (reactivity profile), O00170_C122 included
CCN(CC)c1ccc(S(N)(=O)=O)cc1NC(=O)CCl    1.1
O=C(/C=C/c1ccccc1)Nc1cc(C(F)(F)F)cc(C(F)(F)F)c1    0.9
O=C(CCl)N1CCC(C(O)(c2ccccc2)c2ccccc2)CC1    2.2
COc1ccccc1OCCNC(=O)CCl    1.2
O=C(CCl)N1CCN(CC(=O)N2CCOCC2)CC1    1.3

With those in mind, consider the next molecule.
Task: Query isoTOP-ABPP ratio (reactivity profile), O00170_C122 on AIP C122 (O00170) (Homo sapiens, UniProt O00170) for "C=CC(=O)N(Cc1cccnc1)c1ccc(Oc2ccccc2)c(C(F)(F)F)c1"
Result: 1.4

====

# targetOrTestSystem: USP48 C39 (Q86UV5) (Homo sapiens, UniProt Q86UV5)
# Sequence (Q86UV5 whole entry): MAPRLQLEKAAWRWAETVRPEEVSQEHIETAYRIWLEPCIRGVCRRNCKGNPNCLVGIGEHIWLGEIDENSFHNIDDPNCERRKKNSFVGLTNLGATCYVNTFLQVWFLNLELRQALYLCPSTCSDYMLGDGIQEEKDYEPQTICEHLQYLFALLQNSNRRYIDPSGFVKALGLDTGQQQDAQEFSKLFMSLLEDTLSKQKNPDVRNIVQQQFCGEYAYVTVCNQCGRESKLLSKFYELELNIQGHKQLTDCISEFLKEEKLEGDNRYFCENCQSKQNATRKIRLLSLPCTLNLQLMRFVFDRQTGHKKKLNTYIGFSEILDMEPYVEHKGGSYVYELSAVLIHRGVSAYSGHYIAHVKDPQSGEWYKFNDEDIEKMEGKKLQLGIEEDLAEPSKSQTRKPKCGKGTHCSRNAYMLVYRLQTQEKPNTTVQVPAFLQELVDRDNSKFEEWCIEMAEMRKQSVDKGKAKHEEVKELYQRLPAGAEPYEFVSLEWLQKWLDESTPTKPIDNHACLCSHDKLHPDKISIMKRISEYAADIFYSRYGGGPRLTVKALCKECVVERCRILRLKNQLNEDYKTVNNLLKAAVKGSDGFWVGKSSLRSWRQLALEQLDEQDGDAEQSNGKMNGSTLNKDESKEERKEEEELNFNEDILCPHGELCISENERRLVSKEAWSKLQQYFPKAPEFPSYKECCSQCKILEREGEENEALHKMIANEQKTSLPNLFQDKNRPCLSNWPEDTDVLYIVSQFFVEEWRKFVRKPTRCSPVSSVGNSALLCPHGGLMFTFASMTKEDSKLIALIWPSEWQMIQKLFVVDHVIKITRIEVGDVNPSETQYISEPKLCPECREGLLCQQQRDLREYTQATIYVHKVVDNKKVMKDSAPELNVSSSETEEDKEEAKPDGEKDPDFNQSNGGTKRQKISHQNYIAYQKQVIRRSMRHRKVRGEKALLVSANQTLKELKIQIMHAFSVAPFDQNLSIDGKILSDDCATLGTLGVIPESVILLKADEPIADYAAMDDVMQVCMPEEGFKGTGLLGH
# experimentSummary: Competitive isoTOP-ABPP, cell lysates
# Assay type: binding
# experimentalContext: 500 μm in-vitro ramos_231
Lab note: cut-off is 1. Strictly less in isoTOP-ABPP ratio (reactivity profile), Q86UV5_C39 is met. Exactly 1 or more is not met.

Example entries begin here.
O=C(CCl)NC12CC3CC(CC(C3)C1)C2    not met
O=C(CCl)N1CCC(C(O)(c2ccccc2)c2ccccc2)CC1    not met
O=C(CCl)N1CCN(CC(=O)N2CCOCC2)CC1    not met

Now consider the entry below.
Task: Hello, is isoTOP-ABPP ratio (reactivity profile), Q86UV5_C39 of the following compound strictly smaller than 1? "CC(C)CCOCCNC(=O)CCl"
Result: met
